- Test system: Delta-type opioid receptor (Homo sapiens)
- Sequence (P41143 whole entry): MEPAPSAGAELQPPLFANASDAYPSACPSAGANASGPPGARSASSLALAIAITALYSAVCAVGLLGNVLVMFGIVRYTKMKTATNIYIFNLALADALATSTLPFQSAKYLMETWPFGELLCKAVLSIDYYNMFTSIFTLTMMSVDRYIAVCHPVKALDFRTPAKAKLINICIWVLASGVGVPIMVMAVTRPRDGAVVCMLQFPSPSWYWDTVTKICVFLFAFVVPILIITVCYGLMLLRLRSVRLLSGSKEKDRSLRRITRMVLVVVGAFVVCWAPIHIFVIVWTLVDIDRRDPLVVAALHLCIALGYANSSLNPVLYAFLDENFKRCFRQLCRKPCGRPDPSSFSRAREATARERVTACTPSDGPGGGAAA
- Assay remarks: Activation of human DOR assessed as inhibition of forskolin-stimulated cAMP accumulation after 30 mins by cell based TR-FRET assay relative to DPDPE
- Assay type: functional
Classify as follows. Reported inhibition greater than or equal to 90%: label 1. Reported inhibition below: label 0.

# Compound, Classification
rows = [
    ("COc1ccc2c3c1O[C@H]1[C@@H](OC)[C@H](C)C[C@H]4[C@@H](C2)N(C)CC[C@@]341", "label 1"),
    ("C[C@@H]1C[C@H]2[C@H]3Cc4ccc(O)c5c4[C@@]2(CCN3C)[C@@H](O5)[C@H]1O", "label 1"),
    ("COc1ccc2c3c1O[C@H]1C(=O)CC[C@@]4(O)[C@@H](C2)N(C)CC[C@]314 [OXYCODONE]", "label 1"),
    ("COc1cc(C)c2c3c1O[C@H]1[C@@H](O)[C@H](C)C[C@H]4[C@@H](C2)N(C)CC[C@@]341", "label 0"),
    ("COc1ccc2c3c1O[C@H]1[C@@H](O)[C@H](O)C[C@H]4[C@@H](C2)N(C)CC[C@@]341", "label 1"),
    ("COc1ccc2c3c1O[C@H]1[C@@H](O)[C@H](OC)C[C@H]4[C@@H](C2)N(C)CC[C@@]341", "label 0"),
    ("CN1CC[C@]23c4c5ccc(O)c4O[C@H]2[C@@H](O)C=C[C@H]3[C@H]1C5", "label 0"),
]
